System name: T1, recombinant human IL-6 (human, UniProt P05231 30-212)
T1 construct: Flowed in solution over the captured antibodies
T1 sequence (P05231 30-212 limits assumed): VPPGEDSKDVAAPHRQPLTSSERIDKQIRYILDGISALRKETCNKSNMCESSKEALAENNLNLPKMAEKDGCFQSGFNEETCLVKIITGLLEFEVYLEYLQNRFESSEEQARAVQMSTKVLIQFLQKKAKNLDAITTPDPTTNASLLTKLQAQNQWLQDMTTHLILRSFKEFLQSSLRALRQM
Assay method text: SPR (Biacore), supernatant IgG on Protein A, 25 C
Measured attribute: koff (s⁻¹)
Only the number, expressed in s⁻¹, is required.

{"Binder": "anti-IL-6 antibody, heavy chain T28K, light chain WT (antibody, IgG1, V domains shown, Full IgG1 tested; V domains derived as in m2) VH: EVQLVESGGGLVQPGGSLRLSCAASGFKFSPFAMSWVRQAPGKGLEWVAKISPGGSWTYYSDTVTGRFTFSLDTSKSTAYLQMNSLRAEDTAVYYCARQLWGYYALDIWGQGTLVTVSS VL: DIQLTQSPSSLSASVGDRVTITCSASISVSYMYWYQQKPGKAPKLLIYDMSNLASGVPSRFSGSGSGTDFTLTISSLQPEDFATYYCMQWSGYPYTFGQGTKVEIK", "Unit spec": "s⁻¹", "Data value": 0.000143}
{"Binder": "anti-IL-6 antibody, heavy chain F27S, light chain WT (antibody, IgG1, V domains shown, Full IgG1 tested; V domains derived as in m2) VH: EVQLVESGGGLVQPGGSLRLSCAASGSTFSPFAMSWVRQAPGKGLEWVAKISPGGSWTYYSDTVTGRFTFSLDTSKSTAYLQMNSLRAEDTAVYYCARQLWGYYALDIWGQGTLVTVSS VL: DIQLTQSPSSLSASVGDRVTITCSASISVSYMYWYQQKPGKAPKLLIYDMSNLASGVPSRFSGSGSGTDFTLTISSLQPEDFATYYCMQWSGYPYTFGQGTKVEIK", "Unit spec": "s⁻¹", "Data value": 0.000203}

Next item in the queue.
Input: Quick one: koff of anti-IL-6 antibody, heavy chain L100Q, light chain WT (antibody, IgG1, V domains shown, Full IgG1 tested; V domains derived as in m2) VH: EVQLVESGGGLVQPGGSLRLSCAASGFTFSPFAMSWVRQAPGKGLEWVAKISPGGSWTYYSDTVTGRFTFSLDTSKSTAYLQMNSLRAEDTAVYYCARQQWGYYALDIWGQGTLVTVSS VL: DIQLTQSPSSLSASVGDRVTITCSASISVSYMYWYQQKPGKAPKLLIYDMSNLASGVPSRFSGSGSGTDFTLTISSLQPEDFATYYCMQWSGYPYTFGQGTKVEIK ?
Output: 0.000153
